biological target: rNav1.2 sodium channels (Rattus norvegicus, UniProt P04775); construct: host or cells: HEK-293; assay: QPatch automated patch clamp, inhibition of sodium currents evoked by 5 Hz trains at three extracellular pH values; format: cell-based; conditions: pH 8.6; single concentration (lidocaine 300 μM, memantine 30 μM); geometric mean of 5; read-out: apparent affinity
Sequence (P04775 whole entry): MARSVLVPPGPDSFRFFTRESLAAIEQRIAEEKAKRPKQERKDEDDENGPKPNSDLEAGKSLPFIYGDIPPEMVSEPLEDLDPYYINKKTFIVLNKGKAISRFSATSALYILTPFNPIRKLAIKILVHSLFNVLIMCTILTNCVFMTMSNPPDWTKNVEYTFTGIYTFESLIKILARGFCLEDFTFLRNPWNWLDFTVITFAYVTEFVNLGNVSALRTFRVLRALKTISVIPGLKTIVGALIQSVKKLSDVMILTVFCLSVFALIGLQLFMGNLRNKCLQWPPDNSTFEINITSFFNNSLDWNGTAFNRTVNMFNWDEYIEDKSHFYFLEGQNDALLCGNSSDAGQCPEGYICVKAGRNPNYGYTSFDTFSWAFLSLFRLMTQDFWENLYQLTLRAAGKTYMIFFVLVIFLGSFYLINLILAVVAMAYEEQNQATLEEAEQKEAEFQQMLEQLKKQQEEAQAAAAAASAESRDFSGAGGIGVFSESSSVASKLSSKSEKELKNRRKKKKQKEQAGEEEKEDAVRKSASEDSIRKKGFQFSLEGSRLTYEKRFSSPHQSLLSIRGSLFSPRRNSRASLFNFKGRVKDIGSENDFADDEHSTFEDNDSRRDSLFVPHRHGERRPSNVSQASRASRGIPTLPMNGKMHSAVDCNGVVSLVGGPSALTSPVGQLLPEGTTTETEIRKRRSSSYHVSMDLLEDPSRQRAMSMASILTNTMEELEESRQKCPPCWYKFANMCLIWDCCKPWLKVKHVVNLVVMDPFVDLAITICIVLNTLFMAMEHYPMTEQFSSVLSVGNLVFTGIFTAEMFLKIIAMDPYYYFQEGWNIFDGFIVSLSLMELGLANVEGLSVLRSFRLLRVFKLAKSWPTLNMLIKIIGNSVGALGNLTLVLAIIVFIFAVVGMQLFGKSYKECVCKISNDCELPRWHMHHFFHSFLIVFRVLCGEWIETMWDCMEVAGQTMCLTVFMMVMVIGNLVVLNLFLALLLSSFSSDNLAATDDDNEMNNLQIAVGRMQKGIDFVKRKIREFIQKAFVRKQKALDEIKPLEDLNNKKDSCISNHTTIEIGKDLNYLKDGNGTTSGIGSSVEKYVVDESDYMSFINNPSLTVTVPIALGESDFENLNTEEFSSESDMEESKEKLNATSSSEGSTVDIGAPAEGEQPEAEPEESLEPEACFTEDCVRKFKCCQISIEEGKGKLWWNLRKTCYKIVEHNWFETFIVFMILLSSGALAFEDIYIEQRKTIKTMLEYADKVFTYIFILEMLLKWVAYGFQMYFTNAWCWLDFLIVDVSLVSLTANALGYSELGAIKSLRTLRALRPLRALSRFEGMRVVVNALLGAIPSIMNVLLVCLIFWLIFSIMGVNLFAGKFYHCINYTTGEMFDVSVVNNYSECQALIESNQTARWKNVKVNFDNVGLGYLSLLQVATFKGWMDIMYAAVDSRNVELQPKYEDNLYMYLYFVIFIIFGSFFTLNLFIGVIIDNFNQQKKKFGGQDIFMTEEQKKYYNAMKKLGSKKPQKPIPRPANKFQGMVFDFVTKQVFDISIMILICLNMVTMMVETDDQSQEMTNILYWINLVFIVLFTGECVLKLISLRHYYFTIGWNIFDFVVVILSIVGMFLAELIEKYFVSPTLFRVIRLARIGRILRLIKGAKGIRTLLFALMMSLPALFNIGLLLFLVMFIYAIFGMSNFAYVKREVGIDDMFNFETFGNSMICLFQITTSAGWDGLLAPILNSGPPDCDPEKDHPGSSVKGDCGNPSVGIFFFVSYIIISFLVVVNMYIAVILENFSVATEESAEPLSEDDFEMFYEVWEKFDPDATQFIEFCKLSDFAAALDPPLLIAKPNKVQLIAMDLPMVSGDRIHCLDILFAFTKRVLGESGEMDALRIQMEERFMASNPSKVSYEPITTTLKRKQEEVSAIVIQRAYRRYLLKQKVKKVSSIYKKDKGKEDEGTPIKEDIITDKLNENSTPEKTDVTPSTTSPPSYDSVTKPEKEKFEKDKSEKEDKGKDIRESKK
pKd: −log10 of the molar value.
Label scheme for pKd: lower than 4 is rule not met, 4 and above is rule met.

Answered examples (3):
API: above_or_equal(metric=pKd, cutoff=4) for item O=C(NCC1CCCCN1)c1cc(OCC(F)(F)F)ccc1OCC(F)(F)F (stereo not drawn) [flecainide]
rule met

Given Cc1cccc(C)c1OCC(C)N (stereo not drawn) , state whether its pKd is at least 4.
rule met

Decide: is the reported value of pKd for O=C1NC(=O)C(c2ccccc2)(c2ccccc2)N1 equal to or greater than 4?
rule not met

New cases:
Dear colleague, could you confirm whether CCN(CC)CC(=O)Nc1c(C)cccc1C has pKd at or above 4?
rule not met

Hi team, for CCCCN1CCCCC1C(=O)Nc1c(C)cccc1C (stereo not drawn) , is the recorded pKd at or above 4?
rule met

Say whether Nc1nnc(-c2cccc(Cl)c2Cl)c(N)n1 shows pKd of 4 or more.
rule not met

Would you say NC(=O)N1c2ccccc2C=Cc2ccccc21 [carbamazepine] shows pKd at minimum 4?
rule not met

Dear colleague, could you confirm whether Nc1c(Br)cc(Br)cc1CN[C@H]1CC[C@H](O)CC1 has pKd at or above 4?
rule met

Form field: pKd at least 4? Entry: C[Si](C)(Cc1ccc(F)cc1)CN1CCCCC1
rule met

###

target: rNav1.2 sodium channels (Rattus norvegicus, UniProt P04775); construct: host or cells: HEK-293; assay: QPatch automated patch clamp, inhibition of sodium currents evoked by 5 Hz trains at three extracellular pH values; format: cell-based; conditions: pH 7.3; higher concentration: lidocaine 1000 μM, memantine 100 μM; read-out: apparent affinity
Recorded Endpoint: Kd (µM)
Supply the numeric figure in µM, leaving out any unit text.

Measured Kd, CC12CC3CC(C)(C1)CC(N)(C3)C2 [memantine] : 236

Next item in the queue.
The value of Kd measured for the compound CCN(CC)CC(=O)Nc1c(C)cccc1C turned out to be 1030

###

target: rNav1.2 sodium channels (Rattus norvegicus); construct: host or cells: HEK-293; assay: QPatch automated patch clamp, inhibition of sodium currents evoked by 5 Hz trains at three extracellular pH values; assay type: cell-based; details: pH 7.3/8.6; cc 100 mM
Listed below: Ratio Reversibility values for each entry.
// no unit, no text: just the number

Worked set:
Entry CCCCN1CCCCC1C(=O)Nc1c(C)cccc1C (stereo not shown) [bupivacaine] , Ratio Reversibility reported as 1.485

Kindly note the recorded Ratio Reversibility for CNCCC(Oc1ccccc1OC)c1ccccc1 (stereo not shown) [nisoxetine] , which is 1.833

Entry C[Si](C)(Cc1ccc(F)cc1)CN1CCCCC1 [silperisone] , Ratio Reversibility reported as 1.955

Further cases:
// Ratio Reversibility lookup, molecule = CN1CCN2c3ncccc3Cc3ccccc3C2C1 (stereo not shown) [mirtazapine] , result: 1.821

###

Each entry below lists one item and its recorded Ratio Reversibility value.
target: rNav1.2 sodium channels (Rattus norvegicus, UniProt P04775); construct: host or cells: HEK-293; experiment: QPatch automated patch clamp, inhibition of sodium currents evoked by 5 Hz trains at three extracellular pH values; assay type: cell-based; settings: pH 6.0/7.3; cc 300 mM
The reply should be a number, written without any unit.

The cases that follow already have their Ratio Reversibility on record.
Measured Ratio Reversibility of Cc1cccc(C)c1OCC(C)N (centres unmarked) : 0.987

According to the records, this compound NC(=O)N1c2ccccc2C=Cc2ccccc21 [carbamazepine] displays Ratio Reversibility of 0.728

# compound O=C1NC(=O)C(c2ccccc2)(c2ccccc2)N1 ; its Ratio Reversibility = 1.014

Kindly note the recorded Ratio Reversibility for Nc1nnc(-c2cccc(Cl)c2Cl)c(N)n1 , which is 0.765

Next:
Consider O=C(NCC1CCCCN1)c1cc(OCC(F)(F)F)ccc1OCC(F)(F)F (centres unmarked) [flecainide] . Its measured Ratio Reversibility is 1.142

###

Below is a list of entries, each paired with its recorded pKd value.
target: rNav1.2 sodium channels (Rattus norvegicus, UniProt P04775); construct: host or cells: HEK-293; assay: QPatch automated patch clamp, inhibition of sodium currents evoked by 5 Hz trains at three extracellular pH values; type: cell-based; details: pH=8.6; cc 100 mM; read-out: Apparent Affinity
Convention used: pKd is expressed as -log10 of the molar concentration.

Check out these entries, answers already filled in.
Memo: CCCCN1CCCCC1C(=O)Nc1c(C)cccc1C (stereo not shown) , reported pKd: 4.39

Record CN1CCN2c3ncccc3Cc3ccccc3C2C1 (stereo not shown) , field pKd: 4.42

Lab note: measured pKd of C[Si](C)(Cc1ccc(F)cc1)CN1CCCCC1 was 4.57

Continuing:
Quick note, pKd for Cc1ccc(C(=O)C(C)CN2CCCCC2)cc1 (stereo not shown) landed at 3.97

Input CC12CC3CC(C)(C1)CC(N)(C3)C2 [memantine] . Output pKd: 4.36

The molecule listed as COc1ccccc1OCC(O)CN1CCN(CC(=O)Nc2c(C)cccc2C)CC1 (stereo not shown) shows pKd equal to 3.61

Lab note: Nc1c(Br)cc(Br)cc1CN[C@H]1CC[C@H](O)CC1 gave pKd of 4.36

###

target: rNav1.2 sodium channels (Rattus norvegicus, UniProt P04775); construct: host or cells: HEK-293; experiment: QPatch automated patch clamp, inhibition of sodium currents evoked by 5 Hz trains at three extracellular pH values; type: cell-based; details: pH=6.0; cc 100 mM; read-out: Apparent Affinity
Recorded Endpoint: Kd (µM)
Please give a number only; it is taken to be in µM.

Observed Kd, rNav1.2 sodium channels (Rattus norvegicus, UniProt P04775), COc1ccccc1OCC(O)CN1CCN(CC(=O)Nc2c(C)cccc2C)CC1 (stereo not shown) : 206

###

Biological target: rNav1.2 sodium channels (Rattus norvegicus, UniProt P04775)
Construct: host or cells: HEK-293
Assay: QPatch automated patch clamp, inhibition of sodium currents evoked by 5 Hz trains at three extracellular pH values
Assay type: cell-based
Details: pH 6.0; single concentration (lidocaine 300 μM, memantine 30 μM); geometric mean of 5; read-out: apparent affinity
Experimental: HEK-293 cells stably expressing rNav1.2 sodium channels were obtained from NeuroSearch (Ballerup, Denmark). The cells were grown in Dulbecco's modified Eagle medium supplemented with 10% FBS. Prior to use, the cells were trypsinized and subsequently kept in suspension in the QPatch cell storage facility in CHO-S- SFM-II medium. […] Data were sampled at a frequency of 25 kHz and filtered at 5 kHz. Junction potential was calculated to be −11 mV and was corrected for. […]
Recorded Endpoint: Kd (µM)
Only the number, expressed in µM, is required.

Item: O=C1NC(=O)C(c2ccccc2)(c2ccccc2)N1 [phenytoin] | System: rNav1.2 sodium channels (Rattus norvegicus, UniProt P04775) | Kd: 830

rNav1.2 sodium channels (Rattus norvegicus, UniProt P04775) data for CN(C)CCC=C1c2ccccc2CCc2ccccc21 [amitriptyline] ; its Kd: 40.7

// returns Kd for COc1ccccc1OCC(O)CN1CCN(CC(=O)Nc2c(C)cccc2C)CC1 (stereo not shown) [ranolazine] with rNav1.2 sodium channels (Rattus norvegicus, UniProt P04775); value = 206

Query O=C(NCC1CCCCN1)c1cc(OCC(F)(F)F)ccc1OCC(F)(F)F (stereo not shown) [flecainide] on rNav1.2 sodium channels (Rattus norvegicus, UniProt P04775); Kd returned: 68.1

Reported Kd (rNav1.2 sodium channels (Rattus norvegicus, UniProt P04775)) for entry CN(C)CCCN1c2ccccc2Sc2ccc(Cl)cc21 [chlorpromazine] is 37.5

Record for CN1CCN2c3ncccc3Cc3ccccc3C2C1 (stereo not shown) [mirtazapine] under target or system rNav1.2 sodium channels (Rattus norvegicus, UniProt P04775): Kd reported as 317

The reported Kd value, rNav1.2 sodium channels (Rattus norvegicus, UniProt P04775), for NC(=O)N1c2ccccc2C=Cc2ccccc21 [carbamazepine] reads 545

Bench note, rNav1.2 sodium channels (Rattus norvegicus, UniProt P04775): entry Cc1ccc(C(=O)C(C)CN2CCCCC2)cc1 (stereo not shown) [tolperisone] , its Kd = 373

Test item CCc1nn(CCCN2CCN(c3cccc(Cl)c3)CC2)c(=O)n1CCOc1ccccc1 [nefazodone] ; rNav1.2 sodium channels (Rattus norvegicus, UniProt P04775); reported Kd was 38.2

Record C[Si](C)(Cc1ccc(F)cc1)CN1CCCCC1 [silperisone] / rNav1.2 sodium channels (Rattus norvegicus, UniProt P04775), Kd recorded as 334

###

molecular target: rNav1.2 sodium channels (Rattus norvegicus, UniProt P04775); construct: host or cells: HEK-293; test: QPatch automated patch clamp, inhibition of sodium currents evoked by 5 Hz trains at three extracellular pH values; type: cell-based; conditions: pH=7.3; cc 100 mM
Recorded Endpoint: Reversibility
# answer = number (no unit)

For record CN1CCN2c3ncccc3Cc3ccccc3C2C1 (stereo not drawn) [mirtazapine] the listed Reversibility is 0.95

# Reversibility (molecule: Cc1ccc(C(=O)C(C)CN2CCCCC2)cc1 (stereo not drawn) [tolperisone] ) is 0.93

C[Si](C)(Cc1ccc(F)cc1)CN1CCCCC1 [silperisone] yielded Reversibility of 0.92

Lab note: next molecule to report on.
get_value(item= CNCCC(Oc1ccccc1OC)c1ccccc1 (stereo not drawn) [nisoxetine] , readout=Reversibility) returns 0.69

Provenance of the data: paper PMC4585259
